Assay info: protein stability index of a GFP-peptide fusion (GPS, HEK-293T) (PSI 1-6); higher = more stable;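 note: 24-mer peptide tiles fused after GFP, lentivirally expressed, FACS-sorted into six equal bins by GFP/DsRed ratio, decoded by Illumina sequencing, PSI is the read-weighted mean bin number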
Settings: treatment: MLN4924 1 uM, 8 h; c terminus: a fixed tail appended

[
  {
    "Seq text": "GELVLATAISSFTRHVFTCGRRGI [TLE6]",
    "protein stability index": 2.52
  },
  {
    "Seq text": "NRNQGLNRLMLAVRDMMANFHLND [TCF25]",
    "protein stability index": 2.24
  },
  {
    "Seq text": "EEFPKREDQEGSPPETSLPYKWVV [MYBL2]",
    "protein stability index": 3.99
  },
  {
    "Seq text": "SSARIPKCPWMEGGEMSPQVETSI [INTS4]",
    "protein stability index": 4.12
  },
  {
    "Seq text": "TLVDEGDLYNWEVAIFGPPNTYYE [CDC34]",
    "protein stability index": 2.8
  },
  {
    "Seq text": "MQDYVRTGTYQRAILQNHTDFKDK [CARM1]",
    "protein stability index": 4.18
  },
  {
    "Seq text": "QALRENTYPFLAMIMLKDRRMTVV [FAF2]",
    "protein stability index": 1.96
  }
]

* * *

Assay info: protein stability index of a GFP-peptide fusion (GPS, HEK-293T) (PSI 1-6); higher = more stable
Settings: treatment: DMSO; c terminus: a fixed tail appended
Binned protein stability index; ranges: lower bin (below 3), middle bin (3 to below 4), upper bin (4 or more)

[
  {
    "Seq text": "LEERRVKEVVKKHSQFIGYPITLY [HSP90AB1]",
    "Assigned label": "lower bin"
  },
  {
    "Seq text": "MSSPSSPFREQSFLCAAGDAGEES [TIAF1]",
    "Assigned label": "upper bin"
  },
  {
    "Seq text": "YQGLPVRCVKSIIRQVLQGLDYLH [SRPK2]",
    "Assigned label": "lower bin"
  },
  {
    "Seq text": "GHEEMVALLLGQGANINAQTEETQ [ANKRD17]",
    "Assigned label": "upper bin"
  },
  {
    "Seq text": "ELAGVDTELLAERFYYQALSVAPQ [SMG5]",
    "Assigned label": "lower bin"
  },
  {
    "Seq text": "QGHPPSLFPPKAKSNQPKSLEDLI [ATE1]",
    "Assigned label": "upper bin"
  },
  {
    "Seq text": "IYLATSSSKFYDLFLMECEESPNG [RHOBTB1]",
    "Assigned label": "lower bin"
  },
  {
    "Seq text": "NLGDALDSSNSMQTIQKTTTRRIV [KRT18]",
    "Assigned label": "upper bin"
  },
  {
    "Seq text": "CASFIRTRLLLQFTQPQQTSFALE [C8orf76]",
    "Assigned label": "lower bin"
  },
  {
    "Seq text": "LRRHAGLLDGLARRVGILGEELAD [SCARA5]",
    "Assigned label": "middle bin"
  },
  {
    "Seq text": "CRFLLNSRVTDAAFNFLLVWYYCT [TMEM120A]",
    "Assigned label": "lower bin"
  },
  {
    "Seq text": "IFLNGNRERPLNVFCDMETDGGGW [TNXB]",
    "Assigned label": "lower bin"
  },
  {
    "Seq text": "DGIDPFPLLMNRQRVPKVLVENAK [EFHC1]",
    "Assigned label": "middle bin"
  },
  {
    "Seq text": "PGSGPGHGSGSHPGPASGPGPDTG [SPAG8]",
    "Assigned label": "upper bin"
  },
  {
    "Seq text": "PKSLVRLSLEAVICFKEMLANSWN [KLHDC2]",
    "Assigned label": "lower bin"
  },
  {
    "Seq text": "ECRNPQELESIRQDRDALHMEGLI [FEM1B]",
    "Assigned label": "upper bin"
  },
  {
    "Seq text": "ETSRSHDLEAVVPQNGSETGWARK [ATP23]",
    "Assigned label": "upper bin"
  },
  {
    "Seq text": "KSNNRLKSLSIQYLELDRLVWRNS [FBXO39]",
    "Assigned label": "lower bin"
  },
  {
    "Seq text": "EEPRPSRPRYKADVPDLQSVCSCT [KCNK9]",
    "Assigned label": "upper bin"
  },
  {
    "Seq text": "GCKVPQEALLKLLAGLTRPDVRPP [SEPHS2]",
    "Assigned label": "lower bin"
  },
  {
    "Seq text": "DLERQNQEYQVLLDVRARLECEIN [KRT33B]",
    "Assigned label": "middle bin"
  },
  {
    "Seq text": "LKNEIQEVEELDNWQPAVPLMHML [SPATS1]",
    "Assigned label": "lower bin"
  },
  {
    "Seq text": "RSHLIGHQRTHSEEETYKCLECGK [ZNF449]",
    "Assigned label": "upper bin"
  },
  {
    "Seq text": "KYQANITETQRLGLAMALEPNTTF [FANCE]",
    "Assigned label": "middle bin"
  },
  {
    "Seq text": "CLIRSLLRREPSERLTAPEILLHP [TRIB1]",
    "Assigned label": "lower bin"
  },
  {
    "Seq text": "EESRFCDAHLVLDGEEIPVQKNIL [GAN]",
    "Assigned label": "upper bin"
  },
  {
    "Seq text": "VGYGDMHPVTIGGKIVGSLCAIAG [KCNA3]",
    "Assigned label": "lower bin"
  },
  {
    "Seq text": "LKSSGLCESLTYGLPFILRPTSCW [M1AP]",
    "Assigned label": "lower bin"
  },
  {
    "Seq text": "KQLLSNKELILDKVYTHPKWNTQT [ZC2HC1C]",
    "Assigned label": "lower bin"
  },
  {
    "Seq text": "MGTRRKHLGCAVYQDMIYAVGGRD [KLHL20]",
    "Assigned label": "lower bin"
  },
  {
    "Seq text": "EPRQRRLLLLDLLALYTPVGAAGS [ANKRD9]",
    "Assigned label": "lower bin"
  },
  {
    "Seq text": "KQVCKIAALHGLEETKKLANKYLV [KLHL14]",
    "Assigned label": "lower bin"
  },
  {
    "Seq text": "QDDHDHKVQELMSTHELEKKELEE [MTUS2]",
    "Assigned label": "upper bin"
  },
  {
    "Seq text": "DITPLMAAANGGHVKIVKLLLAHK [ANKRD17]",
    "Assigned label": "lower bin"
  },
  {
    "Seq text": "HLLGIPHSVLQIRYSGKILKNNET [IQUB]",
    "Assigned label": "lower bin"
  },
  {
    "Seq text": "AEDLGNLWENTRFTDCSFFVRGQE [SPOPL]",
    "Assigned label": "middle bin"
  },
  {
    "Seq text": "TNNKVYAAKIIPHSRVAKPHQREK [PLK2]",
    "Assigned label": "middle bin"
  },
  {
    "Seq text": "AVPAAATRTTSFKGTSPSSKYVKL [KCTD10]",
    "Assigned label": "middle bin"
  },
  {
    "Seq text": "FVKYLIRPQPWLEKEIEEATKKLG [FUT8]",
    "Assigned label": "lower bin"
  },
  {
    "Seq text": "RELRCKVFPIKHYQDKIRPYIQLP [TRIB1]",
    "Assigned label": "lower bin"
  },
  {
    "Seq text": "IEAAVQDRLNEQEGVPSVFNPPPS [FAF2]",
    "Assigned label": "upper bin"
  },
  {
    "Seq text": "CRLKKCFRAGMKKEAVQNERDRIS [HNF4A]",
    "Assigned label": "middle bin"
  },
  {
    "Seq text": "GVKFVGLFIILQVGLNTIADLWYL [POMT2]",
    "Assigned label": "middle bin"
  },
  {
    "Seq text": "RTDVGITHQHWQQFEPQLTLWDVF [RSAD1]",
    "Assigned label": "lower bin"
  },
  {
    "Seq text": "NEDGPSSENLEEETENIIAANHWV [TRIP13]",
    "Assigned label": "upper bin"
  },
  {
    "Seq text": "SSRPENIPPKEFHFRHPKRSVSLS [BNIP3L]",
    "Assigned label": "upper bin"
  },
  {
    "Seq text": "GEREPFAETDEHTGANTKKPEDTA [FAM9B]",
    "Assigned label": "upper bin"
  },
  {
    "Seq text": "KIREQNLQDIKTAGPQSQVLCGVV [ADD1]",
    "Assigned label": "middle bin"
  }
]
